These data points were gathered from PubChem BioAssay (NCATS).

Biological target: Voltage-gated inwardly rectifying potassium channel KCNH2 (Homo sapiens) (UniProt Q12809)
Sequence (Q12809 whole entry, looked up): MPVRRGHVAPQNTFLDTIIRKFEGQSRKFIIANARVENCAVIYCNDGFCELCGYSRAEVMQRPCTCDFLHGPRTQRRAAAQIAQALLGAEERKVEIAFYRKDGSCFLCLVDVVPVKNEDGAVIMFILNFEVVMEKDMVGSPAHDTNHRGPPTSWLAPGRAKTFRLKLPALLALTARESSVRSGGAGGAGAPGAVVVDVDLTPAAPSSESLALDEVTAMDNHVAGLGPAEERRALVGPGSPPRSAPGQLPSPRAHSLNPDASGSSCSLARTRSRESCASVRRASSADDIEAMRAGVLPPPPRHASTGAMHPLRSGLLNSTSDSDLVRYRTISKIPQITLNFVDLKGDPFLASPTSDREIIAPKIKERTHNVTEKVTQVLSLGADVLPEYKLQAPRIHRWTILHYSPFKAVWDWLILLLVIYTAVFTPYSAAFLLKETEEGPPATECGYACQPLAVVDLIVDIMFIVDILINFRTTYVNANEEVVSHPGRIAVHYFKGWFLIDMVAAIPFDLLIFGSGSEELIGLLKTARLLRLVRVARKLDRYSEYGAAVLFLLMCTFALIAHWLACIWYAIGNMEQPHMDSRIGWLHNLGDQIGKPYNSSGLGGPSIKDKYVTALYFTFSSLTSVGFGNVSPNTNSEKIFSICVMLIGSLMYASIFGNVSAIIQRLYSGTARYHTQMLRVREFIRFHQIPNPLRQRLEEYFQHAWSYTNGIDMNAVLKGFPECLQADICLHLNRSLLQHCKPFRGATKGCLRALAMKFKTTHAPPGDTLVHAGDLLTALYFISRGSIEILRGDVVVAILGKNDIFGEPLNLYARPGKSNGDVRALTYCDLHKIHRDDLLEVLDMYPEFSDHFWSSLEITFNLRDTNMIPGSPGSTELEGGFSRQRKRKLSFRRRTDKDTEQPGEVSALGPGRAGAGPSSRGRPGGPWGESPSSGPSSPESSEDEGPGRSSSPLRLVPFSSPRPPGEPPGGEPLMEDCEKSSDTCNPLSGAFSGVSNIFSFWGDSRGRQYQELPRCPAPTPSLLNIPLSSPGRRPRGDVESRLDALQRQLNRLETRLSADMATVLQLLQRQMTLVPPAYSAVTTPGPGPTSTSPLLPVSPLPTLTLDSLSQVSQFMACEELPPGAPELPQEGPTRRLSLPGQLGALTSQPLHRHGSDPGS
Assay: qHTS Assay for Small Molecule Inhibitors of the Human hERG Channel Activity (AID 588834);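 note: U2OS cells transduced with hERG by BacMam; top concentration of the series differs between compounds; lower thallium flux fluorescence means stronger hERG block; nearly all actives have a fitted effect of over 50% in size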
Conditions: U2OS BacMam hERG, FluxOR thallium flux fluorescence; series mostly up to 46.1 µM
Inconclusive results are not listed. The source made the active and inactive calls. Calls come from the whole dose curve; as a rule, active = well fitted inhibition curve with a large enough effect; inconclusive = small, poorly fitted or top-dose-only effect; inactive = flat fitted curve, though single readings scatter.

{"MOLECULE": "Nc1ccc(S(=O)(=O)Nc2ccc(Cl)nn2)cc1", "EXPERIMENTAL_SYSTEM": "Voltage-gated inwardly rectifying potassium channel KCNH2 (Homo sapiens) (UniProt Q12809)", "outcome": "inactive"}
{"MOLECULE": "N[C@@H](CSSC[C@H](N)C(=O)O)C(=O)O", "EXPERIMENTAL_SYSTEM": "Voltage-gated inwardly rectifying potassium channel KCNH2 (Homo sapiens) (UniProt Q12809)", "outcome": "inactive"}
{"MOLECULE": "Cc1ncc([N+](=O)[O-])n1CC(O)CCl (stereo not drawn)", "EXPERIMENTAL_SYSTEM": "Voltage-gated inwardly rectifying potassium channel KCNH2 (Homo sapiens) (UniProt Q12809)", "outcome": "inactive"}
